Recorded values, source ChEMBL document CHEMBL3885861.

Organism: Rattus norvegicus
Assay: Open TG-GATES - Regimen: Daily Repeat
Assay type: toxicity, organism-based, Sprague-Dawley
Design: regimen Daily Repeat, gender Male, age 6 weeks
Conditions: in vivo, po, 1000 mg/kg, […], tissue Plasma, route gavage, dose level High, time 28 day
Provide the reported CRE of each item.
Record the value in mg/dL, omitting the unit from your answer.

Input: Hello, please tell me recorded CRE for this one: CC(S)C(=O)NCC(=O)O (centres undefined)
Output: 0.2

Input: Hello, please tell me recorded CRE for this one: O=C(O)c1ccccc1Nc1ccccc1
Output: 0.3

Input: Hello, please tell me recorded CRE for this one: CCCCNC(=O)NS(=O)(=O)c1ccc(C)cc1 [TOLBUTAMIDE]
Output: 0.3

Input: Hello, please tell me recorded CRE for this one: CC(=O)[C@@]1(O)CC[C@H]2[C@@H]3C=C(Cl)C4=CC(=O)CC[C@]4(C)[C@H]3CC[C@@]21C
Output: 0.2
